# TARGET OR TEST SYSTEM: T1, Prostate specific membrane antigen (PSMA) (human, UniProt Q04609 1-750)
# T1 construct: whole, on cells; The background says that PSMA is a homodimer when enzymatically active; also called glutamate carboxypeptidase II; GCPII
# T1 sequence (Q04609 whole entry): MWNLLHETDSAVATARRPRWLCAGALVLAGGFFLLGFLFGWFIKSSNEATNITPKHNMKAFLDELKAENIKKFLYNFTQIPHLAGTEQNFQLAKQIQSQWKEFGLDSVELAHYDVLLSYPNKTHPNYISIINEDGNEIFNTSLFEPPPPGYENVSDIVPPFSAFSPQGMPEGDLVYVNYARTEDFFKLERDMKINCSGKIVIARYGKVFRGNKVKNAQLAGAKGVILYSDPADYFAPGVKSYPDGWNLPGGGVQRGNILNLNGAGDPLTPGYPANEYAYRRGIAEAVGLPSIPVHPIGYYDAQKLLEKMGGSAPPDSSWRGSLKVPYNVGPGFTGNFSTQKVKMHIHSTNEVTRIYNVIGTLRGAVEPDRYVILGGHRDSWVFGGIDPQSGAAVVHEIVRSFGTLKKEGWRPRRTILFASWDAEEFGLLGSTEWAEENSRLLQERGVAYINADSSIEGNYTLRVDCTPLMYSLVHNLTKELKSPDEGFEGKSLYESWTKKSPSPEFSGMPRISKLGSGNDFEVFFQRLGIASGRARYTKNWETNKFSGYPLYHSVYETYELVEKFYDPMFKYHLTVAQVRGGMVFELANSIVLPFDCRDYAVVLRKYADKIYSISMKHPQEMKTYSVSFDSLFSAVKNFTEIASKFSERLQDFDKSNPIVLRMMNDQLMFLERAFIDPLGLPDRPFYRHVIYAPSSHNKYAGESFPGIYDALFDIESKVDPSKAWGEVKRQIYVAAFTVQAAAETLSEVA
# PROCEDURE DETAILS: flow cytometry on LNCAP cells, FITC anti-human IgG
# Method: Pre-confluent LNCAP cells at 80-90% confluence were washed and detached from the plates with trypsin prior to 1-hour incubation at 37° C., 5% CO₂ in the flasks to restore cell surface proteins. […] Finally, cells were washed, fixed and FITC fluorescence associated to the antibody bound to the cells was measured by flow cytometry (GUAVA 8HT Cytometer). Data was analyzed using Incyte GuavaSoft 2.7 software (Merck-Millipore). […]
Consider the cut-off 0.3 µg/mL. If the recorded EC50 is strictly smaller, the label is Satisfied; if not, the label is Not satisfied.

binder="3F11-var 3 (antibody, human IgG1, kappa, V domains shown, Expressed from pXC-IgG1zadeltaK and pXC-Kappa vectors) VH: QVQLVQSGAEVKKPGASVKVSCKASGYTFTYFDINWLRQAPGQGLEWMGGISPGDGNVNYAQKFQGRVTLTIDTSTSTAYMELSSLRSEDTAVYYCARDGNFPYYAMDSWGQGTLVTVSS VL: DIVMTQSPLSLPVTPGEPASISCRSSQSLVHSNGNTYLHWFLQKPGQSPQLLIYTVSNRFSGVPDRFSGSGSGTDFTLKISRVEAEDVGVYFCSQSTHVPTFGGGTKVEIKR" assigned_class=Satisfied
binder="3F11-var 6 (antibody, human IgG1, kappa, V domains shown, Expressed from pXC-IgG1zadeltaK and pXC-Kappa vectors) VH: QVQLVQSGAEVKKPGASVKVSCKASGYTFTYFDINWLRQAPGQGLEWMGGISPGDGNTNYAQKFQGRVTLTIDTSTSTAYMELSSLRSEDTAVYYCARDGNFPYYAMDSWGQGTLVTVSS VL: DIVMTQSPLSLPVTPGEPASISCRSSQSLVHSNGQTYLHWYLQKPGQSPQLLIYTVSNRFSGVPDRFSGSGSGTDFTLKISRVEAEDVGVYYCSQSTHVPTFGGGTKVEIKR" assigned_class=Satisfied
binder="3F11-var 10 (antibody, human IgG1, kappa, V domains shown, Expressed from pXC-IgG1zadeltaK and pXC-Kappa vectors) VH: QVQLVQSGAEVKKPGASVKVSCKASGYTFTYFDINWLRQAPGQGLEWMGGISPGDGNTNYAQKFQGRVTLTIDTSTSTAYMELSSLRSEDTAVYYCARDGNFPYYAMDSWGQGTLVTVSS VL: DIVMTQSPLSLPVTPGEPASISCRSSQSLVHSSGQTYLHWYLQKPGQSPQLLIYTVSNRFSGVPDRFSGSGSGTDFTLKISRVEAEDVGVYYCSQSTHVPTFGGGTKVEIKR" assigned_class=Satisfied
binder="3F11-var 12 (antibody, human IgG1, kappa, V domains shown, Expressed from pXC-IgG1zadeltaK and pXC-Kappa vectors) VH: QVQLVQSGAEVKKPGASVKVSCKASGYTFTYFDINWLRQAPGQGLEWMGGISPGDSNVNYAQKFQGRVTLTIDTSTSTAYMELSSLRSEDTAVYYCARDGNFPYYAMDSWGQGTLVTVSS VL: DIVMTQSPLSLPVTPGEPASISCRSSQSLVHSSGQTYLHWYLQKPGQSPQLLIYTVSNRFSGVPDRFSGSGSGTDFTLKISRVEAEDVGVYYCSQSTHVPTFGGGTKVEIKR" assigned_class="Not satisfied"
binder="3F11-var 14 (antibody, human IgG1, kappa, V domains shown, Expressed from pXC-IgG1zadeltaK and pXC-Kappa vectors) VH: QVQLVQSGAEVKKPGASVKVSCKASGYTFTYFDINWLRQAPGQGLEWMGGISPGDGNTNYAQKFQGRVTLTIDTSTSTAYMELSSLRSEDTAVYYCARDGNFPYYAMDSWGQGTLVTVSS VL: DIVMTQSPLSLPVTPGEPASISCRSSQSLVHSSGQTYLHWYQQKPGQSPQLLIYTVSNRASGVPDRFSGSGSGTDFTLKISRVEAEDVGTYYCSQSTHVPTFGGGTKVEIKR" assigned_class=Satisfied
binder="3F11-var 2 (antibody, human IgG1, kappa, V domains shown, Expressed from pXC-IgG1zadeltaK and pXC-Kappa vectors) VH: QVQLVQSGAEVKKPGASVKVSCKASGYTFTYFDINWLRQAPGQGLEWMGGISPGDGNTNYAQKFQGRVTLTIDTSTSTAYMELSSLRSEDTAVYYCARDGNFPYYAMDSWGQGTLVTVSS VL: DIVMTQSPLSLPVTPGEPASISCRSSQSLVHSNGNTYLHWFLQKPGQSPQLLIYTVSNRFSGVPDRFSGSGSGTDFTLKISRVEAEDVGVYFCSQSTHVPTFGGGTKVEIKR" assigned_class=Satisfied
binder="3F11-var 4 (antibody, human IgG1, kappa, V domains shown, Expressed from pXC-IgG1zadeltaK and pXC-Kappa vectors) VH: QVQLVQSGAEVKKPGASVKVSCKASGYTFTYFDINWLRQAPGQGLEWMGGISPGDSNVNYAQKFQGRVTLTIDTSTSTAYMELSSLRSEDTAVYYCARDGNFPYYAMDSWGQGTLVTVSS VL: DIVMTQSPLSLPVTPGEPASISCRSSQSLVHSNGNTYLHWFLQKPGQSPQLLIYTVSNRFSGVPDRFSGSGSGTDFTLKISRVEAEDVGVYFCSQSTHVPTFGGGTKVEIKR" assigned_class="Not satisfied"
binder="3F11-var 9 (antibody, human IgG1, kappa, V domains shown, Expressed from pXC-IgG1zadeltaK and pXC-Kappa vectors) VH: QVQLVQSGAEVKKPGASVKVSCKASGYTFTYFDINWLRQAPGQGLEWMGGISPGDGNTNYNENFKGRVTLTIDKSTSTAYMELSSLRSEDTAVYFCARDGNFPYYAMDSWGQGTLVTVSS VL: DIVMTQSPLSLPVTPGEPASISCRSSQSLVHSSGQTYLHWYLQKPGQSPQLLIYTVSNRFSGVPDRFSGSGSGTDFTLKISRVEAEDVGVYYCSQSTHVPTFGGGTKVEIKR" assigned_class=Satisfied
binder="3F11-var 16 (antibody, human IgG1, kappa, V domains shown, Expressed from pXC-IgG1zadeltaK and pXC-Kappa vectors) VH: QVQLVQSGAEVKKPGASVKVSCKASGYTFTYFDINWLRQAPGQGLEWMGGISPGDSNVNYAQKFQGRVTLTIDTSTSTAYMELSSLRSEDTAVYYCARDGNFPYYAMDSWGQGTLVTVSS VL: DIVMTQSPLSLPVTPGEPASISCRSSQSLVHSSGQTYLHWYQQKPGQSPQLLIYTVSNRASGVPDRFSGSGSGTDFTLKISRVEAEDVGTYYCSQSTHVPTFGGGTKVEIKR" assigned_class=Satisfied
